Source listed as patent US20240116985A1.

Could you please report measured pIC50 for the items listed next?
- assayed system: Bcat-Halo (beta-catenin HaloTag construct expressed in HEK293 cells) (UniProt P35222)
- Sequence (P35222 whole entry): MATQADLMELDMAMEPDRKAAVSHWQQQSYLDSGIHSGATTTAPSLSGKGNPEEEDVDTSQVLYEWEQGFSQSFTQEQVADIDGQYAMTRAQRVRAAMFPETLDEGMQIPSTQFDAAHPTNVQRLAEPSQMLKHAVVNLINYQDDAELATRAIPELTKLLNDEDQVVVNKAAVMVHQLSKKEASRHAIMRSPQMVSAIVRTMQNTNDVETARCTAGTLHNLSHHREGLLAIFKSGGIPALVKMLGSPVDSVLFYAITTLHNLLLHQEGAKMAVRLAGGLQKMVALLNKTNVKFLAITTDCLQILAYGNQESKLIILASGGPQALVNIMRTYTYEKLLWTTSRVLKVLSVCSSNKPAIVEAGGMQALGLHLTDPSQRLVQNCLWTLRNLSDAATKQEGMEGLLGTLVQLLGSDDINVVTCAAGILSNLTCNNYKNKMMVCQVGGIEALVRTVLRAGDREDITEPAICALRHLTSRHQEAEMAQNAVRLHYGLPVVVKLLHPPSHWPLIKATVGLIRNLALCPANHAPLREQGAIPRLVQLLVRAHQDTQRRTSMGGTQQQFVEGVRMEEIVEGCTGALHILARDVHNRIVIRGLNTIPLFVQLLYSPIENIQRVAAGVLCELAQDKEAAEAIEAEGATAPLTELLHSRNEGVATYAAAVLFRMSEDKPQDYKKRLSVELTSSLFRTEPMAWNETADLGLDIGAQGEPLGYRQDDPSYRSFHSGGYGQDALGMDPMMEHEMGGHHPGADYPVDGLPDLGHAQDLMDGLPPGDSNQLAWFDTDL
- assay protocol: NanoBRET Abs IC50 in HEK293 cells; B-cat-Halo with competitor TCF4-Luc
Starred links: 1 amine or outer side, 2 acyl side, 3 side chain; linkers in the order of their positions; H or OH if unused. Positions of bridges follow the written chain, without caps; N, C: chain ends. Non-standard residues stand in square brackets, D forms with d. Primed or numbered codes have the meaning given here. PyrS2″ = (S)-3-amino-1-((pent-4-en-1-yloxy)carbonyl)pyrrolidine-3-carboxylic acid (stapling residue), C=CCCCOC(=O)N1CC[C@@](N[*:1])(C(=O)[*:2])C1; B5(12) = 2-amino-2-(pent-4-en-1-yl)hept-6-enoic acid (two olefin side chains), C=CCCCC(CCCC=C)(N[*:1])C(=O)[*:2]; B5(19) = 2-amino-2-(pent-4-en-1-yl)hept-6-enoic acid (bis(4-pentenyl)glycine), C=CCCCC(CCCC=C)(N[*:1])C(=O)[*:2]; Phe(3-COOH) = N[C@@H](Cc1cccc(C(=O)O)c1)C(=O)O; Phe(2-Cl) = N[C@@H](Cc1ccccc1Cl)C(=O)O; Bta = N[C@@H](Cc1csc2ccccc12)C(=O)O; αAllylPro = C=CC[C@@]1(C(=O)O)CCCN1; tBuAla = CC(C)(C)C[C@H](N)C(=O)O; 3Thi = N[C@@H](Cc1ccsc1)C(=O)O; S8 = C=CCCCCCC[C@](C)(N)C(=O)O; hSer = N[C@@H](CCO)C(=O)O; Nle = CCCC[C@H](N)C(=O)O
# pIC50 is unitless: minus log10 of the molar concentration; print number only

Qu. Which measured pIC50 value corresponds to Ac-[αAllylPro]D[tBuAla][B5(19)]DDAAF[hSer][S8][Phe(2-Cl)][Bta]Q-NH2 (staple 1-4, 4-11) [I-1395] ?
Ans. 4.81

Qu. Field request: pIC50 | item: Ac-[αAllylPro]DL[B5(12)]DDAAFL[PyrS2″][3Thi][Bta]L-NH2 (staple 1-4, 4-11) [I-1410]
Ans. 4.53

Qu. For Ac-[αAllylPro]D[tBuAla][B5(12)]DDAAFL[PyrS2″][3Thi][Bta]L-NH2 (staple 1-4, 4-11) [I-1409] , what is its reported pIC50?
Ans. 4.62

Qu. State the recorded pIC50 for this entry: Ac-[αAllylPro]DL[B5(12)]D[Phe(3-COOH)]AAFL[PyrS2″][3Thi][Bta]Q-NH2 (staple 1-4, 4-11) [I-1406]
Ans. 5.30

Qu. What measured pIC50 goes with Ac-[αAllylPro]DL[B5(12)]D[Phe(3-COOH)]AAF[Nle][PyrS2″][3Thi][Bta]Q-NH2 (staple 1-4, 4-11) [I-1407] ?
Ans. 5.38
